# Tested on: Hepatitis C virus
# protocolDetails: Antiviral activity against Hepatitis C virus genotype 1b in Huh-luc/neo-ET replicon cells after 48 hrs by replicon-based luciferase assay
# Format: functional, organism-based, Hepacivirus hominis
pEC50: −log10 of the molar value.
Give 1 (yes) when the value for pEC50 is at least 10. Give 0 (no) when it is less.

Could you tell me if the measured pEC50 of COC(=O)N[C@H](C(=O)N1CC2(CCS(=O)(=O)CC2)CC1c1ncc(-c2ccc(-c3ccc(-c4cnc([C@@H]5CCCN5C(=O)[C@@H](NC(=O)OC)C(C)C)[nH]4)cc3)cc2)[nH]1)C(C)C (mixture of isomers) reaches 10 or more?
1 (yes)

// data source = ChEMBL document CHEMBL3120061
